- System: Musca domestica
- TEST_DETAILS: Toxicity against SCR-susceptible Musca domestica (house fly) assessed as mortality compound administered by intrathoracic injection 1 to 2 hr after piperonyl butoxide treatment measured 24 hr post compound treatment relative to ryanodine
- Type: functional
Please provide measured Ratio for the entries that follow.
Give the figure only, with no unit attached.

Ratio for CON[C@@]12O[C@H]3[C@]45O[C@@](O)(C[C@@]1(C)[C@@]4(O)CC[C@H](C)[C@H]5O)[C@@]3(C)[C@@](O)(C(C)C)[C@H]2OC(=O)c1ccc[nH]1 ? 20

Reported Ratio, molecule CC(C)[C@@]1(O)[C@@H](OC(=O)c2ccc[nH]2)[C@]2(O)O[C@@]3(NO)[C@]45O[C@@](O)(C[C@@]2(C)[C@@]4(O)CC[C@H](C)[C@H]5O)[C@]31C : ____ 12

Can you share its Ratio? I mean this molecule: CC(C)[C@@]1(O)[C@@H](OC(=O)c2ccc[nH]2)C(=O)[C@@]2(C)C[C@]3(O)O[C@]4(/C(=N\O)[C@]13C)[C@H](O)[C@@H](C)CC[C@@]42O 30

Return reported Ratio; argument: CC(C)[C@@]1(O)[C@@H](OC(=O)c2ccc[nH]2)/C(=N/OCc2ccccc2)[C@@]2(C)C[C@]3(O)O[C@]4(C(=O)[C@]13C)[C@H](O)[C@@H](C)CC[C@@]42O 1

Quick check: Ratio of CC(C)[C@@]1(O)[C@@H](OC(=O)c2ccc[nH]2)[C@@H]2O[C@@]3(O)[C@]45O[C@@](O)(C[C@@]2(C)[C@@]4(O)CC[C@H](C)[C@H]5O)[C@]31C ? 40

For the molecule C=C1CC[C@]2(O)[C@]3(C)C[C@]4(O)O[C@@]2([C@@H]1O)[C@]1(O)O[C@@]3(NN)[C@H](OC(=O)c2ccc[nH]2)[C@](O)(C(C)C)[C@@]14C , what Ratio is on record? 60

// lookup Ratio for CCCSC[C@H]1CC[C@]2(O)[C@]3(C)C[C@]4(O)O[C@@]2([C@@H]1O)[C@]1(O)[C@@]3(O)[C@H](OC(=O)c2ccc[nH]2)[C@](O)(C(C)C)[C@@]14C 6

Returns the measured Ratio for the input molecule. Input: C=C1CC[C@@]2(O)[C@]3(O[C@@]4(O)C[C@]2(C)C(=O)[C@H](OC(=O)c2ccc[nH]2)[C@](O)(C(C)C)[C@@]4(C)C3=O)[C@@H]1O [4,12-SECO-4,12-DIOXODEHYDRORYANODIN] 4

Suppose we examine the molecule CC(C)[C@@]1(O)[C@@H](OC(=O)c2ccc[nH]2)/C(=N/O)[C@@]2(C)C[C@]3(O)O[C@]4(C(=O)[C@]13C)[C@H](O)[C@@H](C)CC[C@@]42O ; what Ratio value has been reported? 6

Entry under review: C=C1CC[C@]2(O)[C@]3(C)C[C@]4(O)O[C@@]2([C@@H]1O)[C@]1(O)[C@@]3(O)[C@H](OC(=O)c2ccc[nH]2)[C@](O)(C(C)C)[C@@]14C [DEHYDRORYANODINE] . Reported Ratio? 136

Field request: Ratio | item: CC(C)[C@@]1(O)[C@@H](OC(=O)c2ccc[nH]2)[C@]2(NO)O[C@H]3[C@]45O[C@@](O)(C[C@@]2(C)[C@@]4(O)CC[C@H](C)[C@H]5O)[C@]31C 100
